- test_name: Bioavailability in oral administration in rats
- Type: in vivo, Wistar-strain male rats
- test_settings: rat, plasma; rats, oral, after 120 min.; read-out: Concentration in plasma
Give measured concentration at 2 h for each item. Keep answers brief.
One number for each entry, in ng/mL.

Solved entries (count: 3):
smiles: CCn1cc(C(=O)O)c(=O)c2cc(F)c(-n3cnc(C)c3)c(F)c21
reported: 52000

smiles: CCn1cc(C(=O)O)c(=O)c2cc(F)c(-n3ccnc3)c(F)c21
reported: 48000

smiles: CCn1cc(C(=O)O)c(=O)c2cc(F)c(N3CCN(C)CC3)c(F)c21
reported: 14600

--- query ---
Reported concentration at 2 h for CCn1cc(C(=O)O)c(=O)c2cc(F)c(N3CCNCC3)cc21 was 630

###

Consider compounds characterized by their MIC with Salmonella paratyphi 1015.
One number for each entry, in µg/mL.

Solved entries (count: 2):
compound: CC1COc2c(-n3ccnc3)c(F)cc3c(=O)c(C(=O)O)cn1c23 (stereo not drawn) [F]
study_target: Salmonella paratyphi 1015
MIC / µg/mL: 0.05
//
compound: CCn1cc(C(=O)O)c(=O)c2cc(F)c(-n3ccnc3)c(F)c21 [I-a]
study_target: Salmonella paratyphi 1015
MIC / µg/mL: 0.05

--- query ---
Reported MIC for CCn1cc(C(=O)O)c(=O)c2cc(F)c(N3CCN(C)CC3)cc21 [B] was 0.1

###

- test_name: Bioavailability in oral administration in mice
- Assay type: in vivo, ddY-strain male mice
- test_settings: mouse, serum; mice, oral 50 mg/kg, after 120 min.; read-out: Concentration in serum
Classify as follows. Reported concentration at 2 h greater than or equal to 8000 ng/mL: Satisfied. Reported concentration at 2 h below: Not satisfied.

compound: CCn1cc(C(=O)O)c(=O)c2cc(F)c(N3CCN(C)CC3)c(F)c21
assigned_class: Not satisfied
//
compound: CCn1cc(C(=O)O)c(=O)c2cc(F)c(-n3cnc(C)c3)c(F)c21
assigned_class: Satisfied
//
compound: CC1COc2c(-n3ccnc3)c(F)cc3c(=O)c(C(=O)O)cn1c23 (centres unmarked)
assigned_class: Not satisfied
//
compound: CCn1cc(C(=O)O)c(=O)c2cc(F)c(N3CCNCC3)cc21
assigned_class: Not satisfied

Now look at this entry.
Could you tell me if the measured concentration at 2 h of CCn1cc(C(=O)O)c(=O)c2cc(F)c(-n3ccnc3)c(F)c21 reaches 8000 ng/mL or more?
Not satisfied

###

- Tested on: Serratia marcescens IAM 1184
Give measured MIC for each item. Keep answers brief.
Remember to quote the unit after the number.

molecule: CCn1cc(C(=O)O)c(=O)c2cc(F)c(-n3cnc(C)c3)c(F)c21
measured_quantity: MIC
reported: 3.13 µg/mL
//
molecule: CCn1cc(C(=O)O)c(=O)c2cc(F)c(N3CCN(C)CC3)c(F)c21
measured_quantity: MIC
reported: 0.78 µg/mL
//
molecule: CC1COc2c(-n3ccnc3)c(F)cc3c(=O)c(C(=O)O)cn1c23 (stereo not shown)
measured_quantity: MIC
reported: 3.12 µg/mL
//
molecule: CCn1cc(C(=O)O)c(=O)c2cc(F)c(N3CCNCC3)c(F)c21
measured_quantity: MIC
reported: 0.78 µg/mL
//
molecule: CCn1cc(C(=O)O)c(=O)c2cnc(-n3ccnc3)cc21
measured_quantity: MIC
reported: 100 µg/mL
//
molecule: CCn1cc(C(=O)O)c(=O)c2cc(F)c(-n3ccnc3)c(F)c21
measured_quantity: MIC
reported: 1.56 µg/mL

--- query ---
Reported MIC for CCn1cc(C(=O)O)c(=O)c2cc(F)c(N3CCNCC3)cc21 was 0.39 µg/mL
